Catalogue of abundance fitness values
B1: Poly(rC)-binding protein 1, residues 278 to 350; numbered along this chain, Q15365 (parent)
chain: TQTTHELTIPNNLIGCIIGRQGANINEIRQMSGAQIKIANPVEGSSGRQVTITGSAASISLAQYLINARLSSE

# Variants of: B1
# experimental_details: abundance fitness (aPCA) (normalised: wild type 0, dead -1); higher = more abundant; growth selection in yeast, the domain comes from the species named
# experimental_parameters: Homo sapiens

Use the examples below as a reference point.
mutation_spec=M31F result=-0.109
mutation_spec=R20W result=-0.188
mutation_spec=T53C result=-0.137
mutation_spec=Y64D result=0.411
mutation_spec=E27T result=-0.102
mutation_spec=E27A result=-0.18
mutation_spec=P10N result=-0.938
mutation_spec=S58C result=-0.241
mutation_spec=N40K result=0.02
mutation_spec=S45L result=-0.011

// sample `S72T` , its abundance fitness was 0.222

// sample `I59G` , its abundance fitness was -0.66

// sample `E43I` , its abundance fitness was 0.01

// sample `I52G` , its abundance fitness was -1.05

// sample `T4A` , its abundance fitness was -0.109
